All figures here come from PubChem BioAssay AID1650.

experiment notes: mammalian cell viability reduction – secondary assay, cytotoxicity control for West Nile virus antiviral project, dose response (AID 1650)
condition notes: Mammalian host cell viability, cytotoxicity counter-screen; series mostly up to 10 µM
Entries with a potency or affinity are not part of this list. Active and inactive are the calls of the source. How the calls were made is not given here.
recorded endpoint: outcome

Consider the worked cases shown below.
>>> reading("O=C(Nc1ccc(F)cc1F)c1cc2ccccc2oc1=O")
"inactive"
>>> reading("CCOC(=O)C(CC)(CC)C(=O)/C=C/c1cccc(Br)c1")
"inactive"
>>> reading("CCCCOC(=O)Cn1c2ccc(OC)cc2c2nc3ccccc3nc21")
"inactive"
>>> reading("CCn1nc(C)c(CN2CCC(C(=O)Nc3cccc(-c4cccc(F)c4)c3)CC2)c1C")
"inactive"
>>> reading("CN1CCN(C(=O)CCN2C(=O)/C(=C/c3ccc(F)cc3)SC2=S)CC1")
"inactive"

Documented outcome of CCN(CC)CCCNC(=O)c1cc(-c2ccccc2)c(N2CCCCC2)s1 : inactive

Documented outcome of COc1ccc(CNCCC(c2ccc(OC(C)C)cc2)c2ccccc2OC)cc1OC (stereo not given) : inactive

Documented outcome of CN(C)CCCN(C(=O)c1ccco1)c1nc2ccc(Cl)cc2s1 : inactive

Documented outcome of CCN(CC)CCOC(=O)c1ccc(NC(=O)CCCN2C(=O)S/C(=C/c3ccc(OC)cc3)C2=S)cc1 : inactive

Documented outcome of COc1ccc(N2CCN(c3oc(-c4ccc(OC)c(OC)c4)nc3C#N)CC2)cc1 : inactive

###

experiment notes: mammalian cell viability reduction – secondary assay, cytotoxicity control for West Nile virus antiviral project, dose response (AID 1650)
condition notes: Mammalian host cell viability, cytotoxicity counter-screen; series mostly up to 10 µM
Measured potencies and affinities stand elsewhere. Active and inactive are the calls of the source. No rule for the calls is given here.
recorded endpoint: outcome

Consider the worked cases shown below.
>>> reading("Cc1ccc(-n2ncc(C(=O)Nc3ccc(Cl)cc3)c2C2CCNCC2)cc1C")
"inactive"
>>> reading("O=C1c2ccccc2C2=Nc3ccccc3SC(c3ccc(Cl)cc3)C12 (stereo unspecified)")
"inactive"
>>> reading("CCN(CC)CCCC(C)NC(=O)c1c(NC(=O)c2ccccc2)sc2c1CCCC2 (stereo unspecified)")
"inactive"
>>> reading("CCN(CC)CCCNC(=O)c1[nH]c2ccccc2c1Sc1ccc(Cl)cc1")
"inactive"
>>> reading("CN1CCCC1CCNc1ccc2c(=O)c3ccccc3oc2c1 (stereo unspecified)")
"inactive"

# next compound below
Documented outcome of CN(C)CCNS(=O)(=O)c1ccc(N2CCN(c3ccc(F)cc3)CC2)c([N+](=O)[O-])c1 : inactive

###

experiment notes: mammalian cell viability reduction – secondary assay, cytotoxicity control for West Nile virus antiviral project, dose response (AID 1650)
condition notes: Mammalian host cell viability, cytotoxicity counter-screen; series mostly up to 10 µM
Results with a measured potency or affinity are listed apart. Active and inactive are the calls of the source. No rule for the calls is given here.
recorded endpoint: outcome

>>> reading("CCN(CC)CCNC(=O)c1sc2ncn(CC(=O)Nc3ccc(C)c(Cl)c3)c(=O)c2c1C")
"inactive"
>>> reading("Cn1cc(CN2CCCC(C(=O)Nc3ccc(-c4cccc(F)c4)cc3)C2)cn1 (stereo not given)")
"inactive"
>>> reading("CC[C@H]1CC2CN3CCc4c([nH]c5c([C@H]6C[C@H]7[C@H](CC)CN(C)[C@@H](Cc8c6[nH]c6ccccc86)[C@H]7C(=O)OC)c(OC)ccc45)C(C(=O)OC)(C2)C13")
"inactive"
>>> reading("CN(C)c1nc(=Nc2cccc(Cl)c2)ss1")
"inactive"
>>> reading("COc1ccc(-c2cc(C(=O)c3c(N)n(C)c(=O)n(C)c3=O)c3ccccc3n2)cc1OC")
"inactive"

# next compound below
Documented outcome of COc1ccc(OCC(O)Cn2c(=N)n(Cc3ccccc3)c3ccccc32)cc1 (stereo not given) : inactive
